Cited source for all entries: the DeepSol protein solubility set

Test: soluble on expression in E. coli; label from the status in PepcDB or PDB records
Property: soluble on expression in E. coli

Q: Answer with the recorded soluble on expression in E. coli of MPLYRTYIEGEFLLGIWKSDETTEQLLASLEHKDWYREKLAVLSEKRKHEWLSVRVLLKALCGEEKEIAYYSSGRPYLKDGSRYISISHTRGYVAVALHSSCEVGMDIEQYGTRVRKVASRFIRSDEEPAMMEGDEVYALLLHWSAKEALFKLMGVEEVDFIRHLRIFPFSLSEEGEFEACEYRTGRQERYRVRYVTHPDFVLTWIIK only.
Result: not soluble

Q: Answer with the recorded soluble on expression in E. coli of MGSDKIHHHHHHMNIIIIGAQASGKMTIGQEIAKQTGMTLFHNHDSIDFVLRFMPWSPDSIALTESIRFKFFETFAKTGQEMIFTIVIDFNDSRDVVFLEKIQIVFQSHNQEVLFVELETELSERLKRNRTENRLKHKPSKRDIKWSESDICSTMDYAIFNPEVAPEALTYYHKINNTCLTATETAYLIIQKINQIKEKN only.
Result: not soluble

Q: Answer with the recorded soluble on expression in E. coli of MTLDVPVNQGHVPPGSVACCLVGVTAVADGIAGHSLSNFGALPPEINSGRMYSGPGSGPLMAAAAAWDGLAAELSSAATGYGAAISELTNMRWWSGPASDSMVAAVLPFVGWLSTTATLAEQAAMQARAAAAAFEAAFAMTVPPPAIAANRTLLMTLVDTNWFGQNTPAIATTESQYAEMWAQDAAAMYGYASAAAPATVLTPFAPPPQTTNATGLVGHATAVAALRGQHSWAAAIPWSDIQKYWMMFLGALATAEGFIYDSGGLTLNALQFVGGMLWSTALAEAGAAEAAAGAGGAAGWSAWSQLGAGPVAASATLAAKIGPMSVPPGWSAPPATPQAQTVARSIPGIRSAAEAAETSVLLRGAPTPGRSRAAHMGRRYGRRLTVMADRPNVG only.
Result: not soluble

###

Test: soluble on expression in E. coli; label from the status in PepcDB or PDB records
Property: soluble on expression in E. coli

Q: Answer with the recorded soluble on expression in E. coli of MAHHHHHHMGDNILDQKVDLFGGKGIFTKELDEELIKGKVHICVHSLKDVPMELPEQVQLSCFLKRDTINDAFLSVKYGTLEDMNKMKMANKMEEGSYQPKGMSQRVINQNVKRDNYEGDHYDNFIPTIGTSSLRRSSQIKYKYKNVAVKNMRGNINTRIAKLCNGQYDAIIIAKCGLERLTTKKGIRNIIGGKNKVTPKNFLINYNNTEINLTSLHIQQINKRTIYPALCQGIIAVSSHKSDKYISDVLKNINDEKAQIMANIERSFLYQIEGNCMMPIGGYAKIVNGEIVFNAVINDIHGREKYHVREVGKVESYNEIAVMAATKMKEKIGTHRFNKIREEAAQYYA only.
Result: not soluble

Q: Answer with the recorded soluble on expression in E. coli of MSKKVLIITGDAVEALEVYYPYYRLLEEGHDVTIAAPKKKKLHTVVHDFADWDTYVEKQGYLIDAHASFAEVDPAQYDALVIPGGRAPEYIRLDENVQRIVRHFFEANKPIAAICHASLIFETMPDLLKGRSLTAYIACKPGVEALGATYVSDNTVHVDGNLVSAHAWPDLPAFMREFLRLLQ only.
Result: soluble

Q: Answer with the recorded soluble on expression in E. coli of GSSPQREPQRVSHEQFRAALQLVVDPGDPRSYLDNFIKIGEGSTGIVCIATVRSSGKLVAVKKMDLRKQQRRELLFNEVVIMRDYQHENVVEMYNSYLVGDELWVVMEFLEGGALTDIVTHTRMNEEQIAAVCLAVLQALSVLHAQGVIHRDIKSDSILLTHDGRVKLSDFGFCAQVSKEVPRRKSLVGTPYWMAPELISRLPYGPEVDIWSLGIMVIEMVDGEPPYFNEPPLKAMKMIRDNLPPRLKNLHKVSPSLKGFLDRLLVRDPAQRATAAELLKHPFLAKAGPPASIVPLMRQNRTR only.
Result: soluble

Q: Answer with the recorded soluble on expression in E. coli of MLTIKNLHASVHNNQILRGVNLTINAGEVHAIMGPNGSGKSTLASVLAGREDYAIVDGDVRYFDEDLFELSPEDRAAKGLFLAFQYPVEIPGVNNLYFLKTAVNSIRKTRGEAPFDAIDLMGLVKEKLALVDMDDKFLKRSVNEGFSGGEKKRNEILQMLMLDPRLAILDETDSGLDIDALQTVAKGVNSLRNKERAILLVTHYQRLLDYIKPDFVHVLVNGRIVLSGDQSLALELEKKGYGWL only.
Result: soluble

Q: Answer with the recorded soluble on expression in E. coli of MGRGSFTQIDTPDQVTERMRALLVKLESPAVTDLTATFSEPGIDVTPARLPDLYRGEPLTLSARMGQARGTLTLTGRIGGQPWQTQLHLDAAQDGTGIGKLWARAKIAEAETARLTGGLTAEAADAAILRLALDHGLTTRLTSLVAVDATPRRPAGMRLASTELPLNLPAGWDFETVFGTQDELEHHHHHH only.
Result: not soluble

Now take the following sequence into account.
Q: Answer with the recorded soluble on expression in E. coli of KTTVRVGLVQWQMRPYKTLDDVFEQVEFFVDAVSDYKSDFVLFPEYFNAPLMAKFNHLGEAQSIRGLAQYTEEVRDRFINLAISYNINIITGSMPYVKEDGGLYNVGFLVRRDGSYEMYEKVHVTPDEIKSWGLSGGKMVQTFDTDCAKIGILICYDVEFPELSRIMADQGMQILFVPFLTDTQNGYSRVRVCAQARAIENECFVVIAGSVGNLPRVHNMDIQYAQSGVFTPCDFAFPTDGKRAEATPNTEMILVSDVDLNLLNELHTYGSVRNLRDRRHDLYELKIKK only.
Result: not soluble
